Data origin, for the record: patent US12630643B2

Target: IBIIICI scFv
Assay type: binding, mouse
// Kd lookup, one value per entry
Don't forget the unit after the value.

Q) Tell me the measured Kd of FIGITELKKLESKINKVF (SEQ ID NO: 25), C-term K-biotin; full length MTTE [UU24] , please.
A) 120 pM

Q) Tell me the measured Kd of FIGITELKKLES [UU74] , please.
A) 120 pM

Q) Tell me the measured Kd of FIGITELKKLESK [UU73] , please.
A) 340 pM

Q) Tell me the measured Kd of FIGITELKKLESKINK [UU70] , please.
A) 160 pM

* * *

Target: 14GIIICII scFv
Type: binding, mouse
MEASURED_ENDPOINT: kd (s⁻¹)
Could you give me the number in s⁻¹? Just the number is fine.

The following sequences have reported results that may help.
INSERT INTO results (sequence_record, endpoint_result) VALUES
  ('FIGITELKKLESKINK [UU70]', 0.00019),
  ('FIGITELKKLESKIN [UU71]', 0.00032);

Then there is this sequence:
Q) # get_value(readout= kd, system= 14GIIICII scFv) for FIGITELKKLES [UU74]
A) 0.00095

* * *

Biological target: 14GIIICII scFv
Assay type: binding, mouse
// pKd lookup, one value per entry
A value of pKd is the negative decimal logarithm of a concentration given in moles per litre.

The following sequences have reported results that may help.
INSERT INTO measurements (sequence_record, tested_system, measured_endpoint, endpoint_result) VALUES
  ('FIGITELKKLESKIN [UU71]', '14GIIICII scFv', 'pKd', 9.22),
  ('FIGITELKKLES [UU74]', '14GIIICII scFv', 'pKd', 8.77),
  ('FIGITELKKLESK [UU73]', '14GIIICII scFv', 'pKd', 9.06),
  ('FIGITELKKLESKINKVF (SEQ ID NO: 25), C-term K-biotin; full length MTTE [UU24]', '14GIIICII scFv', 'pKd', 9.52),
  ('FIGITELKKLESKI [UU72]', '14GIIICII scFv', 'pKd', 9.22);

Q) # get_value(readout= pKd, system= 14GIIICII scFv) for FIGITELKKLESKINK [UU70]
A) 9.54

* * *

Target: IBIIICI scFv
Type: binding, mouse
MEASURED_ENDPOINT: kd (s⁻¹)
Could you give me the number in s⁻¹? Just the number is fine.

The following sequences have reported results that may help.
INSERT INTO measurements (sequence_record, endpoint_result) VALUES
  ('FIGITELKKLESKINKVF (SEQ ID NO: 25), C-term K-biotin; full length MTTE [UU24]', '2.3e-05'),
  ('FIGITELKKLES [UU74]', '3.3e-05'),
  ('FIGITELKKLESKINK [UU70]', '3.7e-05');

Q) Tell me the measured kd of FIGITELKKLESK [UU73] , please.
A) 6.7e-05

* * *

Molecular target: 14GIIICII scFv
Type: binding, mouse
MEASURED_ENDPOINT: kd (s⁻¹)
Could you give me the number in s⁻¹? Just the number is fine.

The following sequences have reported results that may help.
INSERT INTO results (sequence_record, tested_system, measured_endpoint, endpoint_result) VALUES
  ('FIGITELKKLESKI [UU72]', '14GIIICII scFv', 'kd', 0.00034),
  ('FIGITELKKLESK [UU73]', '14GIIICII scFv', 'kd', 0.00044);

Then there is this sequence:
Q) Tell me the measured kd of FIGITELKKLESKINKVF (SEQ ID NO: 25), C-term K-biotin; full length MTTE [UU24] , please.
A) 0.0002
